So I've got a bunch of sequences here, and I need their PBM binding z-score values.
Test system: PPARg:RXRa (NR concentration 180 nM, RXRa partner concentration 90 nM)
Assay: PBM binding z-score (relative to random genomic background probes); higher = stronger binding; sequences stand for … in GC…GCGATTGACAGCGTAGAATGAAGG
// print number alone

Q) Name the reported PBM binding z-score value associated with the sequence ACAGACAGGTGATGAGGGTAACTCAGGCTATCAT
A) 0.8

Q) Item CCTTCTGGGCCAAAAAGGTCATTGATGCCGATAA has what recorded PBM binding z-score?
A) 2.52

Q) What value of measured PBM binding z-score is listed for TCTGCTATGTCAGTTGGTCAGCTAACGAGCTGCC ?
A) -0.623

Q) # query: PBM binding z-score of entry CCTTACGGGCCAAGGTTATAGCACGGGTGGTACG
A) 0.573

Q) Find the recorded PBM binding z-score belonging to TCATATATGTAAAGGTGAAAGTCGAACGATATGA and report it.
A) 2.6

Q) Give its PBM binding z-score value. Item: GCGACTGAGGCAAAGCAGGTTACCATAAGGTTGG
A) 0.328
